system: Escherichia coli B; experiment: Activation of Escherichia coli B thymidine kinase using [2-14C]-thymidine as substrate assessed as formation of [14C]-TMP at 0.1 mM after 10 mins by liquid scintillation spectrometric analysis relative to control
metric-name: Activity (%)
Answers are plain numbers, in %.

Solved entries (count: 4):
compound="CC[S+]([O-])C[C@H]1O[C@@H](n2cc(C)c(=O)[nH]c2=O)C[C@@H]1O (stereo not given in full)" value_units=% endpoint_value=-5
compound=Cc1cn([C@H]2C[C@H](O)[C@@H](CSCCC(=O)O)O2)c(=O)[nH]c1=O value_units=% endpoint_value=120
compound=Cc1cn([C@H]2C[C@H](O)[C@@H](CSCCCC(=O)O)O2)c(=O)[nH]c1=O value_units=% endpoint_value=61
compound=CCSC[C@H]1O[C@@H](n2cc(C)c(=O)[nH]c2=O)C[C@@H]1O value_units=% endpoint_value=70

Now look at this entry.
Task: Query: Activity; subject: Cc1cn([C@H]2C[C@H](O)[C@@H](C[S+]([O-])CCC(=O)O)O2)c(=O)[nH]c1=O (stereo not given in full)
Output: -2
